Target: RORγ (Homo sapiens, UniProt P51449)
Construct: expressed in transfected cells; host or cells: 293FT cells (Invitrogen), expression vector pFN26A (Promega)
Sequence (P51449 269-508 limits assumed): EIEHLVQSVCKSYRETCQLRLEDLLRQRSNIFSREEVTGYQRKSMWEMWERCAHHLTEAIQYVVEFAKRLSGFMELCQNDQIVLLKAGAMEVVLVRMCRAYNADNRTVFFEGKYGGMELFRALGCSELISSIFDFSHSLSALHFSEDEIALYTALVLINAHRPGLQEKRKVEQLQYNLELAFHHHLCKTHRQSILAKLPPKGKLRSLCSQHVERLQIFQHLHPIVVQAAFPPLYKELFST
Experiment: RORγ GAL4 reporter gene assay (luciferase readout)
Assay type: cell-based
Conditions: inhibition of RORγ (GAL4-RORγ-LBD) in 293FT cells, luciferase signal; read-out: mean pIC50 (converted)
Measurement kind: IC50

> print(dat)
                                   compound  recorded.value
1  CCC(O)(c1ccc(C(=O)NCc2ccc(S(=O)(=O)CC)cc2)cc1)C(F)(F)F (stereo not shown)         < 10 µM

Go through the list and state IC50 for each entry.
1. C[C@@H](NC(=O)c1ccc(C(O)(C(F)(F)F)C(F)(F)F)cc1)c1ccc(S(=O)(=O)CC2CC2)cc1
2. CCCOC(c1ccc(C(=O)NCc2ccc(S(=O)(=O)NC3CC3)cc2)cc1)(C(F)(F)F)C(F)(F)F
3. CCC(O)(c1ccc(C(=O)NCc2ccc(S(=O)(=O)CC3CC3)cc2)cc1)C(F)(F)F (racemic) [(−)-1]

-- reply
["< 10 µM", "≤ 1 µM", "≤ 1 µM"]
